- target.or.test.system: Neuronal acetylcholine receptor; alpha3/beta4 (Rattus norvegicus) (UniProt P04757+P12392)
- run.description: Antagonist activity at rat alpha3beta4 nAChR expressed in Xenopus laevis oocytes assessed as inhibition of Ach-induced response at -70 mV holding potential incubated for 5 mins by voltage-clamp assay relative to LvIA IC50
- Assay type: cell-based
- measurement.context: Oocyte
Where a SMILES comes first, the peptide text is derived from it. Bridges are numbered along the chain shown (N, C = ends).
parameter: Ratio IC50
Write the value as a bare number.

Q: Which Ratio IC50 value belongs to CC[C@H](C)[C@@H]1NC(=O)[C@H](C)NC(=O)[C@@H]2CCCN2C(=O)[C@H](Cc2cnc[nH]2)NC(=O)[C@H](CC(=O)O)NC(=O)[C@H](C(C)C)NC(=O)[C@H](CC(N)=O)NC(=O)[C@@H]2CSSC[C@H](NC(=O)CN)C(=O)N[C@@H](CSSC[C@@H](C(N)=O)NC1=O)C(=O)N[C@@H](CO)C(=O)N[C@@H](Cc1cnc[nH]1)C(=O)N1CCC[C@H]1C(=O)N[C@@H](C)C(=O)N2 (H-GCCSHPACNVDHPAIC-NH2; disulfide 2-8, 3-16) ?
Ans: 0.6

Q: Which Ratio IC50 value belongs to CC[C@H](C)[C@@H]1NC(=O)[C@H](CCC(=O)O)NC(=O)[C@@H]2CCCN2C(=O)[C@H](Cc2cnc[nH]2)NC(=O)[C@H](CC(=O)O)NC(=O)[C@H](C(C)C)NC(=O)[C@H](CC(N)=O)NC(=O)[C@@H]2CSSC[C@H](NC(=O)[C@H](C)N)C(=O)N[C@@H](CSSC[C@@H](C(N)=O)NC1=O)C(=O)N[C@@H](CO)C(=O)N[C@@H](Cc1cnc[nH]1)C(=O)N1CCC[C@H]1C(=O)N[C@@H](C)C(=O)N2 (H-ACCSHPACNVDHPEIC-NH2; disulfide 2-8, 3-16) ?
Ans: 3.4

Q: Which Ratio IC50 value belongs to CC[C@H](C)[C@@H]1NC(=O)[C@H](CCC(=O)O)NC(=O)[C@@H]2CCCN2C(=O)[C@H](Cc2cnc[nH]2)NC(=O)[C@H](C)NC(=O)[C@H](C(C)C)NC(=O)[C@H](CC(N)=O)NC(=O)[C@@H]2CSSC[C@H](NC(=O)CN)C(=O)N[C@@H](CSSC[C@@H](C(N)=O)NC1=O)C(=O)N[C@@H](CO)C(=O)N[C@@H](Cc1cnc[nH]1)C(=O)N1CCC[C@H]1C(=O)N[C@@H](C)C(=O)N2 (H-GCCSHPACNVAHPEIC-NH2; disulfide 2-8, 3-16) ?
Ans: 0.2

Q: Which Ratio IC50 value belongs to CC[C@H](C)[C@@H]1NC(=O)[C@H](CCC(=O)O)NC(=O)[C@@H]2CCCN2C(=O)[C@H](Cc2cnc[nH]2)NC(=O)[C@H](CC(=O)O)NC(=O)[C@H](C(C)C)NC(=O)[C@H](C)NC(=O)[C@@H]2CSSC[C@H](NC(=O)CN)C(=O)N[C@@H](CSSC[C@@H](C(N)=O)NC1=O)C(=O)N[C@@H](CO)C(=O)N[C@@H](Cc1cnc[nH]1)C(=O)N1CCC[C@H]1C(=O)N[C@@H](C)C(=O)N2 (H-GCCSHPACAVDHPEIC-NH2; disulfide 2-8, 3-16) ?
Ans: 14.7

Q: Which Ratio IC50 value belongs to CC[C@H](C)[C@@H]1NC(=O)[C@H](CCC(=O)O)NC(=O)[C@@H]2CCCN2C(=O)[C@H](Cc2cnc[nH]2)NC(=O)[C@H](CC(=O)O)NC(=O)[C@H](C(C)C)NC(=O)[C@H]([C@@H](C)CC)NC(=O)[C@@H]2CSSC[C@H](NC(=O)CN)C(=O)N[C@@H](CSSC[C@@H](C(N)=O)NC1=O)C(=O)N[C@@H](CO)C(=O)N[C@@H](Cc1cnc[nH]1)C(=O)N1CCC[C@H]1C(=O)N[C@@H](C)C(=O)N2 (H-GCCSHPACIVDHPEIC-NH2; disulfide 2-8, 3-16) ?
Ans: 1.1

---

- target.or.test.system: Neuronal acetylcholine receptor; alpha3/beta2 (Rattus norvegicus, UniProt P04757+P12390)
- Sequence (P04757 whole entry): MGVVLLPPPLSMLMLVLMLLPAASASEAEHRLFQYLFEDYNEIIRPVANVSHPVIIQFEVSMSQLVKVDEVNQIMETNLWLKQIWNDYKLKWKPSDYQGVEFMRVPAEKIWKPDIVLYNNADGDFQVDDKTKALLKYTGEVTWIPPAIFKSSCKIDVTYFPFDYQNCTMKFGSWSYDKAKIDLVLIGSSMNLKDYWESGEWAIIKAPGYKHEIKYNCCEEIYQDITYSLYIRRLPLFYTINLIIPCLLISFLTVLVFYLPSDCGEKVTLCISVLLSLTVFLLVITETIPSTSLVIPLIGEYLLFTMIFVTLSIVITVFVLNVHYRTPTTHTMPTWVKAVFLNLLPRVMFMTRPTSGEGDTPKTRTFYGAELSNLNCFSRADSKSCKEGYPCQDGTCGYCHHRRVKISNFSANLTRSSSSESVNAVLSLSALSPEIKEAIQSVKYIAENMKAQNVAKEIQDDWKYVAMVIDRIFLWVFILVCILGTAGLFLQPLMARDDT
- Sequence (P12390 whole entry): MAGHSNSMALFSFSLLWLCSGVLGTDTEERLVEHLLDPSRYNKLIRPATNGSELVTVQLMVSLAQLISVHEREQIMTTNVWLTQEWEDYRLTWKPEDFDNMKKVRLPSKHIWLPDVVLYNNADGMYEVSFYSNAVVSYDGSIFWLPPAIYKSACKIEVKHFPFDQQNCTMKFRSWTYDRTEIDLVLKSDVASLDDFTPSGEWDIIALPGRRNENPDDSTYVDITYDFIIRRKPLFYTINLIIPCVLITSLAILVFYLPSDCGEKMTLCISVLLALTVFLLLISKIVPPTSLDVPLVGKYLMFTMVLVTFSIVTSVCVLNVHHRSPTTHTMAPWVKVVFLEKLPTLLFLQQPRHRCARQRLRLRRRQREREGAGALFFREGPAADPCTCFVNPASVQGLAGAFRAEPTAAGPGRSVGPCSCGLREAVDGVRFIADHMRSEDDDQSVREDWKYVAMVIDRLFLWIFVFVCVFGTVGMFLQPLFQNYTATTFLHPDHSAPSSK
- run.description: Antagonist activity at rat alpha3beta2 nAChR expressed in Xenopus laevis oocytes assessed as inhibition of Ach-induced response at -70 mV holding potential incubated for 5 mins by voltage-clamp assay
Where a SMILES comes first, the peptide text is derived from it. Bridges are numbered along the chain shown (N, C = ends).
parameter: pIC50
As a rule, pIC50 stands for the negative log10 of the concentration, concentration in M.

Q: Which pIC50 value belongs to CC[C@H](C)[C@@H]1NC(=O)[C@H](CCC(=O)O)NC(=O)[C@@H]2CCCN2C(=O)[C@H](Cc2cnc[nH]2)NC(=O)[C@H](CC(=O)O)NC(=O)[C@H](C(C)C)NC(=O)[C@H](CC(N)=O)NC(=O)[C@@H]2CSSC[C@H](NC(=O)CN)C(=O)N[C@@H](CSSC[C@@H](C(N)=O)NC1=O)C(=O)N[C@@H](C)C(=O)N[C@@H](Cc1cnc[nH]1)C(=O)N1CCC[C@H]1C(=O)N[C@@H](C)C(=O)N2 (H-GCCAHPACNVDHPEIC-NH2; disulfide 2-8, 3-16) ?
Ans: 7.27

---

- target.or.test.system: Neuronal acetylcholine receptor; alpha3/beta2 (Rattus norvegicus) (UniProt P04757+P12390)
- run.description: Antagonist activity at rat alpha3beta2 nAChR expressed in Xenopus laevis oocytes assessed as inhibition of Ach-induced response at -70 mV holding potential incubated for 5 mins by voltage-clamp assay relative to LvIA IC50
- Assay type: cell-based
- measurement.context: Oocyte
Where a SMILES comes first, the peptide text is derived from it. Bridges are numbered along the chain shown (N, C = ends).
parameter: Ratio IC50
Write the value as a bare number.

Q: Which Ratio IC50 value belongs to CC[C@H](C)[C@@H]1NC(=O)[C@H](CCC(=O)O)NC(=O)[C@H](C)NC(=O)[C@H](Cc2cnc[nH]2)NC(=O)[C@H](CC(=O)O)NC(=O)[C@H](C(C)C)NC(=O)[C@H](CC(N)=O)NC(=O)[C@@H]2CSSC[C@H](NC(=O)CN)C(=O)N[C@@H](CSSC[C@@H](C(N)=O)NC1=O)C(=O)N[C@@H](CO)C(=O)N[C@@H](Cc1cnc[nH]1)C(=O)N1CCC[C@H]1C(=O)N[C@@H](C)C(=O)N2 (H-GCCSHPACNVDHAEIC-NH2; disulfide 2-8, 3-16) ?
Ans: 13

Q: Which Ratio IC50 value belongs to CC[C@H](C)[C@@H]1NC(=O)[C@H](CCC(=O)O)NC(=O)[C@@H]2CCCN2C(=O)[C@H](Cc2cnc[nH]2)NC(=O)[C@H](C)NC(=O)[C@H](C(C)C)NC(=O)[C@H](CC(N)=O)NC(=O)[C@@H]2CSSC[C@H](NC(=O)CN)C(=O)N[C@@H](CSSC[C@@H](C(N)=O)NC1=O)C(=O)N[C@@H](CO)C(=O)N[C@@H](Cc1cnc[nH]1)C(=O)N1CCC[C@H]1C(=O)N[C@@H](C)C(=O)N2 (H-GCCSHPACNVAHPEIC-NH2; disulfide 2-8, 3-16) ?
Ans: 0.8

Q: Which Ratio IC50 value belongs to CC[C@H](C)[C@@H]1NC(=O)[C@H](C)NC(=O)[C@@H]2CCCN2C(=O)[C@H](Cc2cnc[nH]2)NC(=O)[C@H](CC(=O)O)NC(=O)[C@H](C(C)C)NC(=O)[C@H](CC(N)=O)NC(=O)[C@@H]2CSSC[C@H](NC(=O)CN)C(=O)N[C@@H](CSSC[C@@H](C(N)=O)NC1=O)C(=O)N[C@@H](CO)C(=O)N[C@@H](Cc1cnc[nH]1)C(=O)N1CCC[C@H]1C(=O)N[C@@H](C)C(=O)N2 (H-GCCSHPACNVDHPAIC-NH2; disulfide 2-8, 3-16) ?
Ans: 1.9

---

- target.or.test.system: Neuronal acetylcholine receptor; alpha3/beta4 (Rattus norvegicus, UniProt P04757+P12392)
- Sequence (P04757 whole entry): as the sequence (P04757 whole entry) above
- Sequence (P12392 whole entry): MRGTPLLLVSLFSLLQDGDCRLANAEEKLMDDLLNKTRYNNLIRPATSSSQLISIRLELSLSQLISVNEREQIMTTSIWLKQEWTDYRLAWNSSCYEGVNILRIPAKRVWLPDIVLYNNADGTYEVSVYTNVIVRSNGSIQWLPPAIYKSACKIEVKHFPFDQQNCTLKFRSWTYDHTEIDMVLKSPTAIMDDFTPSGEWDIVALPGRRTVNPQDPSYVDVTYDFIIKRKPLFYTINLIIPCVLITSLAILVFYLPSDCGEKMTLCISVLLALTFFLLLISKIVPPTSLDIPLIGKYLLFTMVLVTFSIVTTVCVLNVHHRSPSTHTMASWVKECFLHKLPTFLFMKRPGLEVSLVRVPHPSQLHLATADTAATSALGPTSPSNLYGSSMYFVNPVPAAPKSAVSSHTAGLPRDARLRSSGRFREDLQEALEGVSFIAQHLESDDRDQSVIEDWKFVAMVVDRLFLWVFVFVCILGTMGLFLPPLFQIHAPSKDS
- run.description: Antagonist activity at rat alpha3beta4 nAChR expressed in Xenopus laevis oocytes assessed as inhibition of Ach-induced response at -70 mV holding potential incubated for 5 mins by voltage-clamp assay
Where a SMILES comes first, the peptide text is derived from it. Bridges are numbered along the chain shown (N, C = ends).
parameter: IC50

Q: Which IC50 value belongs to CC[C@H](C)[C@@H]1NC(=O)[C@H](CCC(=O)O)NC(=O)[C@@H]2CCCN2C(=O)[C@H](Cc2cnc[nH]2)NC(=O)[C@H](CC(=O)O)NC(=O)[C@H](C(C)C)NC(=O)[C@H](CC(N)=O)NC(=O)[C@@H]2CSSC[C@H](NC(=O)CN)C(=O)N[C@@H](CSSC[C@@H](C(N)=O)NC1=O)C(=O)N[C@@H](CO)C(=O)N[C@@H](Cc1cnc[nH]1)C(=O)N[C@@H](C)C(=O)N[C@@H](C)C(=O)N2 (H-GCCSHAACNVDHPEIC-NH2; disulfide 2-8, 3-16) ?
Ans: > 10000 nM

Q: Which IC50 value belongs to CC[C@H](C)[C@@H]1NC(=O)[C@H](CCC(=O)O)NC(=O)[C@@H]2CCCN2C(=O)[C@H](Cc2cnc[nH]2)NC(=O)[C@H](CC(=O)O)NC(=O)[C@H](C(C)C)NC(=O)[C@H](CC(N)=O)NC(=O)[C@@H]2CSSC[C@H](NC(=O)CN)C(=O)N[C@@H](CSSC[C@@H](C(N)=O)NC1=O)C(=O)N[C@@H](C)C(=O)N[C@@H](Cc1cnc[nH]1)C(=O)N1CCC[C@H]1C(=O)N[C@@H](C)C(=O)N2 (H-GCCAHPACNVDHPEIC-NH2; disulfide 2-8, 3-16) ?
Ans: 193 nM

Q: Which IC50 value belongs to CC[C@H](C)[C@@H]1NC(=O)[C@H](CCC(=O)O)NC(=O)[C@H](C)NC(=O)[C@H](Cc2cnc[nH]2)NC(=O)[C@H](CC(=O)O)NC(=O)[C@H](C(C)C)NC(=O)[C@H](CC(N)=O)NC(=O)[C@@H]2CSSC[C@H](NC(=O)CN)C(=O)N[C@@H](CSSC[C@@H](C(N)=O)NC1=O)C(=O)N[C@@H](CO)C(=O)N[C@@H](Cc1cnc[nH]1)C(=O)N1CCC[C@H]1C(=O)N[C@@H](C)C(=O)N2 (H-GCCSHPACNVDHAEIC-NH2; disulfide 2-8, 3-16) ?
Ans: 543 nM

Q: Which IC50 value belongs to CC[C@H](C)[C@@H]1NC(=O)[C@H](CCC(=O)O)NC(=O)[C@@H]2CCCN2C(=O)[C@H](Cc2cnc[nH]2)NC(=O)[C@H](CC(=O)O)NC(=O)[C@H](C)NC(=O)[C@H](CC(N)=O)NC(=O)[C@@H]2CSSC[C@H](NC(=O)CN)C(=O)N[C@@H](CSSC[C@@H](C(N)=O)NC1=O)C(=O)N[C@@H](CO)C(=O)N[C@@H](Cc1cnc[nH]1)C(=O)N1CCC[C@H]1C(=O)N[C@@H](C)C(=O)N2 (H-GCCSHPACNADHPEIC-NH2; disulfide 2-8, 3-16) ?
Ans: 309 nM

Q: Which IC50 value belongs to CC[C@H](C)[C@@H]1NC(=O)[C@H](CCC(=O)O)NC(=O)[C@@H]2CCCN2C(=O)[C@H](Cc2cnc[nH]2)NC(=O)[C@H](CC(=O)O)NC(=O)[C@H](C(C)C)NC(=O)[C@H](CC(C)C)NC(=O)[C@@H]2CSSC[C@H](NC(=O)CN)C(=O)N[C@@H](CSSC[C@@H](C(N)=O)NC1=O)C(=O)N[C@@H](CO)C(=O)N[C@@H](Cc1cnc[nH]1)C(=O)N1CCC[C@H]1C(=O)N[C@@H](C)C(=O)N2 (H-GCCSHPACLVDHPEIC-NH2; disulfide 2-8, 3-16) ?
Ans: 325 nM
